lg CFU/ml after treatment overview
System: P. aeruginosa 6616
Experiment: Photodynamic inactivation of Pseudomonas aeruginosa, re-seeding on MHA to control inactivation
Type: cell-based
Details: photosensitizer 40 nM/L; initial dose 10 lg CFU/ml; 5 min, 500 μV/ml, 320 nm for flavins, 560 nm for phenothiazines and porphyrins
reported-property: lg CFU/ml after treatment

- Cc1cc2nc3c(=O)[nH]c(=O)nc-3n(C[C@H](O)[C@H](O)[C@H](O)COP(=O)(O)OP(=O)(O)OC[C@H]3O[C@@H](n4cnc5c(N)ncnc54)[C@H](O)[C@@H]3O)c2cc1C [Riboflavin dinucleotide]: 0 lg CFU/ml
- Cc1cc2nc3c(=O)[nH]c(=O)nc-3n(C[C@H](O)[C@H](O)[C@H](O)COP(=O)(O)O)c2cc1C [Riboflavin mononucleotide]: 0 lg CFU/ml
- C=CC1=C(C)c2cc3[n-]c(cc4[n-]c(cc5nc(cc1n2)C(C)=C5C=C)c(C)c4CCC(=O)O)c(CCC(=O)O)c3C.[Fe+2] [Heme]: 0 lg CFU/ml
- Cc1cc2nc3c(=O)[nH]c(=O)nc-3n(C[C@H](O)[C@H](O)[C@H](O)CO)c2cc1C [Riboflavin]: 0 lg CFU/ml
- CN(C)c1ccc2nc3ccc(=[N+](C)C)cc-3sc2c1 [Methylene blue]: 0 lg CFU/ml
- Cc1cc(=[N+](C)C)cc2sc3cc(N(C)C)cc(C)c3nc1-2.[Cl-] [Dimethylmethylene blue]: 0 lg CFU/ml
- Cc1cc2nc3ccc(N(C)C)cc3[s+]c2cc1N.[Cl-] [Toluidine Blue]: 0 lg CFU/ml
- C=Cc1c(C)c2cc3nc(c4c5[n-]c(cc6nc(cc1[n-]2)C(C)=C6CC)c(C)c5C(=O)[C@@H]4C(=O)OC)[C@@H](CCC(=O)OC/C=C(\C)CCC[C@H](C)CCC[C@H](C)CCCC(C)C)[C@@H]3C.[Mg+2] [Chlorophyll alpha (on TWEEN-80), Chlorophyll alpha]: 0 lg CFU/ml

====

Test system: P. aeruginosa 6616
Test: Photodynamic inactivation of Pseudomonas aeruginosa, re-seeding on MHA to control inactivation
Format: cell-based
Settings: photosensitizer 10 nM/L; initial dose 10 lg CFU/ml; 5 min, 500 μV/ml, 320 nm for flavins, 560 nm for phenothiazines and porphyrins
lg CFU/ml after treatment overview
reported-property: lg CFU/ml after treatment (lg CFU/ml)

* CN(C)c1ccc2nc3ccc(=[N+](C)C)cc-3sc2c1 [Methylene blue] | 1
* Cc1cc2nc3c(=O)[nH]c(=O)nc-3n(C[C@H](O)[C@H](O)[C@H](O)CO)c2cc1C [Riboflavin] | 1
* Cc1cc2nc3c(=O)[nH]c(=O)nc-3n(C[C@H](O)[C@H](O)[C@H](O)COP(=O)(O)OP(=O)(O)OC[C@H]3O[C@@H](n4cnc5c(N)ncnc54)[C@H](O)[C@@H]3O)c2cc1C [Riboflavin dinucleotide] | 0
* Cc1cc2nc3c(=O)[nH]c(=O)nc-3n(C[C@H](O)[C@H](O)[C@H](O)COP(=O)(O)O)c2cc1C [Riboflavin mononucleotide] | 0
* Cc1cc2nc3ccc(N(C)C)cc3[s+]c2cc1N.[Cl-] [Toluidine Blue] | 1
* C=Cc1c(C)c2cc3nc(c4c5[n-]c(cc6nc(cc1[n-]2)C(C)=C6CC)c(C)c5C(=O)[C@@H]4C(=O)OC)[C@@H](CCC(=O)OC/C=C(\C)CCC[C@H](C)CCC[C@H](C)CCCC(C)C)[C@@H]3C.[Mg+2] [Chlorophyll alpha (on TWEEN-80), Chlorophyll alpha] | 1
* Cc1cc(=[N+](C)C)cc2sc3cc(N(C)C)cc(C)c3nc1-2.[Cl-] [Dimethylmethylene blue] | 1
* C=CC1=C(C)c2cc3[n-]c(cc4[n-]c(cc5nc(cc1n2)C(C)=C5C=C)c(C)c4CCC(=O)O)c(CCC(=O)O)c3C.[Fe+2] [Heme] | 2

====

lg CFU/ml after treatment overview
Test system: P. aeruginosa 6616
Assay: Photodynamic inactivation of Pseudomonas aeruginosa, re-seeding on MHA to control inactivation
Format: cell-based
Conditions: photosensitizer 20 nM/L; initial dose 10 lg CFU/ml; 5 min, 500 μV/ml, 320 nm for flavins, 560 nm for phenothiazines and porphyrins
reported-property: lg CFU/ml after treatment

* C=Cc1c(C)c2cc3nc(c4c5[n-]c(cc6nc(cc1[n-]2)C(C)=C6CC)c(C)c5C(=O)[C@@H]4C(=O)OC)[C@@H](CCC(=O)OC/C=C(\C)CCC[C@H](C)CCC[C@H](C)CCCC(C)C)[C@@H]3C.[Mg+2] | 1 lg CFU/ml
* Cc1cc2nc3ccc(N(C)C)cc3[s+]c2cc1N.[Cl-] | 1 lg CFU/ml
* C=CC1=C(C)c2cc3[n-]c(cc4[n-]c(cc5nc(cc1n2)C(C)=C5C=C)c(C)c4CCC(=O)O)c(CCC(=O)O)c3C.[Fe+2] | 1 lg CFU/ml
* CN(C)c1ccc2nc3ccc(=[N+](C)C)cc-3sc2c1 | 1 lg CFU/ml
* Cc1cc2nc3c(=O)[nH]c(=O)nc-3n(C[C@H](O)[C@H](O)[C@H](O)COP(=O)(O)OP(=O)(O)OC[C@H]3O[C@@H](n4cnc5c(N)ncnc54)[C@H](O)[C@@H]3O)c2cc1C [Riboflavin dinucleotide] | 0 lg CFU/ml
* Cc1cc(=[N+](C)C)cc2sc3cc(N(C)C)cc(C)c3nc1-2.[Cl-] | 1 lg CFU/ml
* Cc1cc2nc3c(=O)[nH]c(=O)nc-3n(C[C@H](O)[C@H](O)[C@H](O)COP(=O)(O)O)c2cc1C [Riboflavin mononucleotide] | 0 lg CFU/ml
* Cc1cc2nc3c(=O)[nH]c(=O)nc-3n(C[C@H](O)[C@H](O)[C@H](O)CO)c2cc1C | 0 lg CFU/ml
